Origin of measurements: ChEMBL document CHEMBL1949594

Entries annotated with measured viability at 5 µM
tested on: OCI-AML2; experiment: Antiproliferative activity against human OCI-AML2 cells assessed as cell viability at 5 uM after 72 hrs by luciferase assay; assay type: functional; conditions: OCI-AML2, 72 h, read-out: Activity
measurement_name: viability at 5 µM (%)

{"columns": ["compound_structure", "value_measured"],
 "data": [
  ["O=C(O)/C=C/c1ccc(-c2ccc(O)c(C34CC5CC(CC(C5)C3)C4)c2)c(O)c1", 2.1],
  ["O=C(O)/C=C/c1ccc(-c2ccc(O)c(C34CC5CC(CC(C5)C3)C4)c2)c([N+](=O)[O-])c1", 2],
  ["O=C(O)/C=C/c1ccc(-c2ccc(O)c(C34CC5CC(CC(C5)C3)C4)c2)c(C(F)(F)F)c1", 27],
  ["O=C(O)/C=C/c1ccc(-c2ccc(O)c(C34CC5CC(CC(C5)C3)C4)c2)c(C(=O)O)c1", 109],
  ["[N-]=[N+]=Nc1cc(/C=C/C(=O)O)ccc1-c1ccc(O)c(C23CC4CC(CC(C4)C2)C3)c1", 4],
  ["COC(=O)c1cc(/C=C/C(=O)O)ccc1-c1ccc(O)c(C23CC4CC(CC(C4)C2)C3)c1", 2.2],
  ["O=C(O)/C=C/c1ccc(-c2ccc(O)c(C34CC5CC(CC(C5)C3)C4)c2)c(Br)c1", 2.2],
  ["Nc1cc(/C=C/C(=O)O)ccc1-c1ccc(O)c(C23CC4CC(CC(C4)C2)C3)c1", 2.9],
  ["COc1cc(/C=C/C(=O)O)ccc1-c1ccc(O)c(C23CC4CC(CC(C4)C2)C3)c1", 3],
  ["N#Cc1cc(/C=C/C(=O)O)ccc1-c1ccc(O)c(C23CC4CC(CC(C4)C2)C3)c1", 2],
  ["O=C(O)/C=C/c1ccc2c(c1)[nH]c1c(C34CC5CC(CC(C5)C3)C4)c(O)ccc12", 89],
  ["O=C(O)/C=C/c1ccc(-c2ccc(O)c(C34CC5CC(CC(C5)C3)C4)c2)c(Cl)c1", 2],
  ["O=C(O)/C=C/c1cc(Br)c(-c2ccc(O)c(C34CC5CC(CC(C5)C3)C4)c2)cc1Br", 2],
  ["O=C(O)/C=C/c1ccc2c(c1)[nH]c1cc(O)c(C34CC5CC(CC(C5)C3)C4)cc12", 103]
]}
